PROCEDURE_SUMMARY: NCI Yeast Anticancer Drug Screen. Data for the mlh1 rad18 strain (AID 175)
EXPERIMENTAL_SETUP: S. cerevisiae mlh1 rad18 strain growth inhibition; at 50.0 µM (retest, dose inferred, filed as 5.0); hits give high values
Procedure: Growth inhibition of yeast strains with defined genetic alterations is measured as a screen for potential anti-cancer activity. Selected strains with alterations in DNA damage repair or cell cycle control were exposed to compounds and growth inhibition was measured relative to vehicle treated controls. The strain used in this assay is mlh1 rad18
The panel holds about 79,000 compounds, 15% with a hit somewhere; the sample as a whole holds those more often.
Given measured growth inhibition, output Criterion met if it is greater than or equal to 70% and Criterion not met if not.

Solved cases below.
In [3]: df
Out[3]:
                                   compound        class_label
0  O=C1c2cccc3cc4ccccc4c(c23)C(=O)N1CCCNCCNCCCN1C(=O)c2cccc3cc4ccccc4c(c23)C1=O      Criterion met
1                  CCN(CC)CCCCNc1ccc(Cl)cc1  Criterion not met
2        CCC/C(=N\O)S(=O)(=O)c1ccc(NN=O)nc1  Criterion not met

Check the entry CN(NC(=O)CC(=O)NN(C)C(=S)c1ccccc1)C(=S)c1ccccc1 : does growth inhibition equal or exceed 70%?
Criterion met

Form field: growth inhibition at least 70%? Entry: Oc1cccc2c(Br)ccnc12
Criterion met

Test whether the compound COc1ccc(-c2cc3ccccc3c(=O)n2Cc2ccccc2)cc1 records growth inhibition of 70% or higher.
Criterion not met

Could you tell me if the measured growth inhibition of Nc1nnc2nc(CC(=O)c3ccccc3)/c(=C/C(=O)c3ccccc3)n12 reaches 70% or more?
Criterion not met

Decide: is the reported value of growth inhibition for CC1(c2ccccc2)OC(=O)C=CC1=O (stereo not given) equal to or greater than 70%?
Criterion met

* * *

PROCEDURE_SUMMARY: NCI Yeast Anticancer Drug Screen. Data for the rad50 strain (AID 155);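 further: 0% = growth of vehicle-only cultures of the same strain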
EXPERIMENTAL_SETUP: S. cerevisiae rad50 strain growth inhibition; at 5.0 µM (retest, dose inferred, filed as 0.5); hits give high values
Compounds without any hit were thinned out: in the full panel of roughly 79,000, 15% have a hit.
ASSAY_ENDPOINT: growth inhibition (%)
One number for each entry, in %.

Example entries begin here.
                                   molecule  result_unit  result_value
0       COc1ccc2cc3c4cc(OC)c(OC)cc4ccn3c2c1            %             3
1                Nc1ccc(-c2nc3ccccc3s2)cc1I            %            34
2  COc1cc(Cc2n[nH]c(=S)n2-c2ccccc2)c(S(N)(=O)=O)cc1OC            %             4
3  COc1ccc(C2c3cc4c(cc3OC(N3CCCC3)C2C)OCO4)c(OC)c1 (stereo unspecified)            %            -3

Batch request: growth inhibition for each of the following molecules.
1. OCCC1CCN(CC/C=C2/c3ccc(F)cc3Sc3ccc(C(F)(F)F)cc32)CC1
2. Nc1cc(=O)[nH]c(=S)[nH]1.[Pd]
3. N#Cc1cc([N+](=O)[O-])ccc1NC(=O)/C(=N/N)C(C(=O)c1ccc(Cl)c(Cl)c1)C1OC(=O)c2ccccc21 (stereo unspecified)

[26, 0, 23]

Record growth inhibition per entry; entries follow.
1. CCOC(=O)C(=O)Nc1nc2c(s1)C(=O)c1ccccc1C2=O
2. COc1ccc(C2c3cc4c(cc3OC(O)(CO)C2C(=O)O)OCO4)cc1 (stereo unspecified) (tested in a mixture with another compound)
3. C=CC(C)(CCC=C(C)C)OC(=O)Nc1ccccc1 (stereo unspecified)

1. 14
2. -6
3. 19

Take each entry in turn and give its growth inhibition.
1. Oc1[nH]c2ccccc2c1N=NC(=S)NCc1ccccn1
2. Cc1cc(N(CCOS(C)(=O)=O)CCOS(C)(=O)=O)ccc1C=Nc1cccc(Cl)c1

1. 9
2. 10

Items follow; give growth inhibition for each.
1. CC(=N/NC(=S)NCC(C)C)/C(C)=N\Nc1ccc(Cl)cc1
2. CCCCCCCCCC(=O)CC(=O)c1c(O)cccc1O
3. CCN(CC)CCNc1ccc(C)c2sc3ccc(OC)cc3c(=O)c12
4. CCCCCN(CCCCC)CCNc1ccc(C)c2sc3ccccc3c(=O)c12
5. CS(=O)(=O)OC1C(O)C(n2cnc3c(N)ncnc32)C(O)C(OS(C)(=O)=O)C1OS(C)(=O)=O (stereo unspecified)
6. C=C1C(=O)[C@@]23CC[C@H]4[C@@](C)(CCC[C@@]4(C)C(=O)OC)[C@@H]2CC[C@]1(O)C3
7. CS(=O)(=O)Nc1ccc(Nc2c3ccccc3nc3ccccc23)cc1

2
33
32
2
0
83
13

Quick batch: growth inhibition for everything below.
1. CC[N-]c1nncs1.CC[N-]c1nncs1.CC[N-]c1nncs1.CC[N-]c1nncs1.[Cl][Rh][Cl]
2. COc1cccc2c1C1c3ccccc3Sc3cccc(c31)O2 (stereo unspecified)

1. -8
2. 6
